# assay.name: total protein half-life in vivo (active degradation + dilution); higher = more stable protein
# condition.summary: E. coli NCM3722 delta-hslV; growth: N-lim chemostat; doubling time 6 h
Listed below: total protein half-life in vivo values for each entry.
Only the number, expressed in h, is required.

1) MSKTFARSSLCALSMTIMTAHAAEPPTNLDKPEGRLDIIAWPGYIERGQTDKQYDWVTQFEKETGCAVNVKTAATSDEMVSLMTKGGYDLVTASGDASLRLIMGKRVQPINTALIPNWKTLDPRVVKGDWFNVGGKVYGTPYQWGPNLLMYNTKTFPTPPDSWQVVFVEQNLPDGKSNKGRVQAYDGPIYIADAALFVKATQPQLGISDPYQLTEEQYQAVLKVLRAQHSLIHRYWHDTTVQMSDFKNEGVVASSAWPYQANALKAEGQPVATVFPKEGVTGWADTTMLHSEAKHPVCAYKWMNWSLTPKVQGDVAAWFGSLPVVPEGCKASPLLGEKGCETNGFNYFDKIAFWKTPIAEGGKFVPYSRWTQDYIAIMGGR
7.1

Kindly consider the entry below.
Asked: Look up total protein half-life in vivo: MSLTRLLIRDFRNIETADLALSPGFNFLVGANGSGKTSVLEAIYTLGHGRAFRSLQIGRVIRHEQEAFVLHGRLQGEERETAIGLTKDKQGDSKVRIDGTDGHKVAELAHLMPMQLITPEGFTLLNGGPKYRRAFLDWGCFHNEPGFFTAWSNLKRLLKQRNAALRQVTRYEQLRPWDKELIPLAEQISTWRAEYSAGIAADMADTCKQFLPEFSLTFSFQRGWEKETEYAEVLERNFERDRQLTYTAHGPHKADLRIRADGAPVEDTLSRGQLKLLMCALRLAQGEFLTRESGRRCLYLIDDFASELDDERRGLLASRLKATQSQVFVSAISAEHVIDMSDENSKMFTVEKGKITD [P0A7H0]
Given back: 3.95

====

# assay.name: total protein half-life in vivo (active degradation + dilution); higher = more stable protein
# condition.summary: E. coli NCM3722 delta-hslV; growth: N-lim chemostat; doubling time 6 h
measured.quantity: total protein half-life in vivo (h)
The reply should contain only the number, in h.

Below are worked cases with known answers.
1. MIPFNAPPVVGTELDYMQSAMGSGKLCGDGGFTRRCQQWLEQRFGSAKVLLTPSCTASLEMAALLLDIQPGDEVIMPSYTFVSTANAFVLRGAKIVFVDVRPDTMNIDETLIEAAITDKTRVIVPVHYAGVACEMDTIMALAKKHNLFVVEDAAQGVMSTYKGRALGTIGHIGCFSFHETKNYTAGGEGGATLINDKALIERAEIIREKGTNRSQFFRGQVDKYTWRDIGSSYLMSDLQAAYLWAQLEAADRINQQRLALWQNYYDALAPLAKAGRIELPSIPDGCVQNAHMFYIKLRDIDDRSALINFLKEAEIMAVFHYIPLHGCPAGEHFGEFHGEDRYTTKESERLLRLPLFYNLSPVNQRTVIATLLNYFS
4.83
2. MKKKTTLSEEDQALFRQLMAGTRKIKQDTIVHRPQRKKISEVPVKRLIQEQADASHYFSDEFQPLLNTEGPVKYVRPDVSHFEAKKLRRGDYSPELFLDLHGLTQLQAKQELGALIAACRREHVFCACVMHGHGKHILKQQTPLWLAQHPHVMAFHQAPKEYGGDAALLVLIEVEEWLPPELP [P0A8B2]
3.03
3. MNFLAHLHLAHLAESSLSGNLLADFVRGNPEESFPPDVVAGIHMHRRIDVLTDNLPEVREAREWFRSETRRVAPITLDVMWDHFLSRHWSQLSPDFPLQEFVCYAREQVMTILPDSPPRFINLNNYLWSEQWLVRYRDMDFIQNVLNGMASRRPRLDALRDSWYDLDAHYDALETRFWQFYPRMMAQASRKAL
2.32
4. MNKSQLIDKIAAGADISKAAAGRALDAIIASVTESLKEGDDVALVGFGTFAVKERAARTGRNPQTGKEITIAAAKVPSFRAGKALKDAVN [P0ACF4]
5.94
5. MFQLSVQDIHPGEKAGDKEEAIRQVAAALVQAGNVAEGYVNGMLAREQQTSTFLGNGIAIPHGTTDTRDQVLKTGVQVFQFPEGVTWGDGQVAYVAIGIAASSDEHLGLLRQLTHVLSDDSVAEQLKSATTAEELRALLMGEKQSEQLKLDNEMLTLDIVASDLLTLQALNAARLKEAGAVDATFVTKAINEQPLNLGQGIWLSDSAEGNLRSAIAVSRAANAFDVDGETAAMLVSVAMNDDQPIAVLKRLADLLLDNKADRLLKADAATLLALLTSDDAPTDDVLSAEFVVRNEHGLHARPGTMLVNTIKQFNSDITVTNLDGTGKPANGRSLMKVVALGVKKGHRLRFTAQGADAEQALKAIGDAIAAGLGEGA
5.85

Attention now shifts to the item below.
Asked: total protein half-life in vivo lookup needed for MWLLDQWAERHIAEAQAKGEFDNLAGSGEPLILDDDSHVPPELRAGYRLLKNAGCLPPELEQRREAIQLLDILKGIRHDDPQYQEVSRRLSLLELKLRQAGLSTDFLRGDYADKLLDKINDN , thanks.
Given back: 6.32
